Origin of values: PubChem BioAssay AID1851

study.system: Cytochrome P450 1A2 (Homo sapiens)
experiment.description: Cytochrome panel assay with activity outcomes
assay.context: recombinant CYP, pro-luciferin dealkylation, luminescence, p450-cyp1a2; series mostly up to 57.1 µM
In all, about 16,000 compounds went through this assay and about 5,700 (36%) were called active. About 24% were inconclusive and are not listed. The call rests on the fitted dose curve; in most records, active means well fitted curve in the direction sought with a large enough effect; inconclusive means small, poorly fitted or top-dose-only effect, or effect the other way; inactive means no such curve, though single readings can be large or run the other way. The list shows a part of the results.
Outcome codes: active, inactive

{"columns": ["compound", "qualitative.label"],
 "data": [
  ["COC(=O)C(NC(=O)c1ccc(F)cc1)(Nc1ncc(S(=O)(=O)c2ccc([N+](=O)[O-])cc2)s1)C(F)(F)F (centres undefined)", "inactive"],
  ["COc1ccc(NC(=O)N2CC[C@@]3(CCCN(C(=O)c4csnn4)C3)C2)cc1", "inactive"],
  ["COCCn1c(=O)c(-c2cc(F)cc(F)c2)nc2cnc(N3CCNCC3)nc21", "active"],
  ["C#CCSc1nc(Cc2ccc(Cl)cc2)nc2ccccc12", "active"],
  ["CC[N+](CC)(CC)CCOc1cccc(OCC[N+](CC)(CC)CC)c1OCC[N+](CC)(CC)CC", "inactive"],
  ["CSc1ccc2c(c1)N(CC[C@H]1CCCCN1C)c1ccccc1S2", "active"],
  ["COCc1c(C(=O)OCC(=O)N2c3ccccc3NC(=O)C2(C)C)oc2ccccc12", "active"],
  ["O=C(Nc1ccccc1)N1CCCC(c2nc(-c3ccc(F)cc3)no2)C1 (centres undefined)", "active"],
  ["O=C1CSC2(CCN(CCCN3c4ccccc4Sc4ccc(Cl)cc43)CC2)N1", "active"],
  ["COC(=O)CNC(=O)CCCCC(=O)NCC(=O)OC", "inactive"],
  ["COc1ccc(C(=O)NCCCN2CCOCC2)cc1OC", "inactive"],
  ["COc1cccc(C2=CC(c3ccccc3)n3nnnc3N2)c1 (centres undefined)", "active"],
  ["O=C(OCn1ncc(Cl)c(Cl)c1=O)c1cccc(C(F)(F)F)c1", "active"],
  ["CN1CCC[C@@H]1CCO[C@](C)(c1ccccc1)c1ccc(Cl)cc1", "inactive"],
  ["Cc1ccc(C(=O)NCCCN2CCOCC2)cc1N1CCCC1=O", "inactive"],
  ["CN1CCN(c2ncc3nc(-c4cccc(C#N)c4)c(=O)n(CCC#N)c3n2)CC1", "inactive"],
  ["c1cncc(CNc2ncnc3ccc(-c4ccoc4)cc23)c1", "active"],
  ["Cc1nn(C(=O)CN2C(=O)c3ccccc3C2=O)c(C)c1Br", "inactive"],
  ["C[N+](C)(C)CC[N+]1(C)Cc2c(Cl)c(Cl)c(Cl)c(Cl)c2C1", "inactive"],
  ["O=C(CCNC(=O)c1ccccc1)OCN1C(=O)c2ccccc2C1=O", "active"],
  ["O=C(N/N=C/c1ccc([N+](=O)[O-])o1)c1cc(-c2ccncc2)nc2ccccc12", "active"],
  ["CS(=O)(=O)Nc1cccc(-c2ccc3ncnc(NCc4cccnc4)c3c2)c1", "active"],
  ["O=c1[nH]c2cc(Br)cnc2nc1/C=C(\\O)c1ccc(F)cc1", "active"],
  ["COc1c(O[C@H]2O[C@@H](CO)[C@@H](O)[C@@H](O)[C@@H]2O)cc2c(c1OC)-c1ccc(SC)c(=O)cc1[C@H](NC(C)=O)CC2", "inactive"],
  ["CCc1c(O)nc2sc3ccccc3n2c1=O", "active"],
  ["O=S(=O)(NCc1cccnc1)c1ccc(Cl)nc1", "inactive"],
  ["O=C(NC1CCCC1)C1CC(c2ccc(F)cc2)=NO1 (centres undefined)", "active"],
  ["O=c1n(CCCN2CCN(c3cccc(Cl)c3)CC2)nc2ccccn12", "inactive"],
  ["COc1ccc(OC)c2c(=S)c3ccccc3[nH]c12", "active"],
  ["CCCc1nn2c(=O)c(C(c3ccc(C)cc3)c3c(O)nc4sc(CCC)nn4c3=O)c(O)nc2s1", "inactive"],
  ["Cc1nn(C(=O)c2cccnc2)c(C)c1Sc1ccc(Br)cc1", "active"],
  ["O=C(NCCCn1ccnc1)c1ccc(Br)c(S(=O)(=O)N2CCOCC2)c1", "active"],
  ["CC1CCCC(C)N1C(=O)C1CC(c2ccc(F)cc2)=NO1 (centres undefined)", "inactive"],
  ["Cc1nn(C(=O)c2ccco2)c(C)c1Sc1ccccc1", "active"],
  ["CCCCCC(=O)N1CCCC(c2nc(-c3ccc(OC)cc3)no2)C1 (centres undefined)", "active"],
  ["COc1ccc(CNC(=O)/C=C/c2ccc(OCCCF)cc2)cc1", "inactive"],
  ["CCC(C)C(NC(=O)OCc1ccccc1)C(=O)OCN1C(=O)c2ccccc2C1=O (centres undefined)", "inactive"],
  ["Cc1nn(C(=O)c2ccco2)c(C)c1Sc1ccc(Br)cc1", "active"],
  ["COCCn1c(=O)c(-c2ccc(OC)cc2)nc2cnc(N3CCNCC3)nc21", "active"]
]}
